target: Estrogen receptor (Ovis aries) (UniProt P49885+Q9TU15)
Rule: RAC app of 4 or more gives True; anything lower gives False.

Task: Is RAC app at least 4? Consider C[C@]12CC[C@@H]3c4ccc(O)cc4CC[C@H]3[C@@H]1CC[C@@]2(O)C#CCCCCCCOC(=O)CBr
Result: False

Task: Check if RAC app >= 4 (inclusive). Item: C[C@]12CC[C@@H]3c4ccc(O)cc4CC[C@H]3[C@@H]1CC[C@@]2(O)CCCO
Result: False

Task: Please indicate if the recorded RAC app for C[C@]12CC[C@@H]3c4ccc(O)cc4CC[C@H]3[C@@H]1CC[C@@]2(O)C#CCCCCCCO meets or exceeds 4.
Result: True

Task: Tell me whether RAC app is at least 4 here: C[C@]12CC[C@@H]3c4ccc(O)cc4CC[C@H]3[C@@H]1CC[C@@]2(O)CCCOC(=O)CBr
Result: False

Task: Check this compound for RAC app at or above 4: C[C@]12CC[C@@H]3c4ccc(O)cc4CC[C@H]3[C@@H]1CC[C@@]2(O)CC1CO1 (stereo in doubt; 6a)
Result: True

Task: Is the recorded value of RAC app equal to or greater than 4 for this compound? C[C@]12CC[C@@H]3c4ccc(O)cc4CC[C@H]3[C@@H]1CC[C@@]2(O)C#CCCOC(=O)CBr
Result: False
